Biological target: human JAK1 (a.a. 837-1142) (Homo sapiens)
Construct: human JAK1 (a.a. 837-1142); His tag (N); made in house; host or cells: insect cells (baculovirus)
Sequence (P23458 849-1154): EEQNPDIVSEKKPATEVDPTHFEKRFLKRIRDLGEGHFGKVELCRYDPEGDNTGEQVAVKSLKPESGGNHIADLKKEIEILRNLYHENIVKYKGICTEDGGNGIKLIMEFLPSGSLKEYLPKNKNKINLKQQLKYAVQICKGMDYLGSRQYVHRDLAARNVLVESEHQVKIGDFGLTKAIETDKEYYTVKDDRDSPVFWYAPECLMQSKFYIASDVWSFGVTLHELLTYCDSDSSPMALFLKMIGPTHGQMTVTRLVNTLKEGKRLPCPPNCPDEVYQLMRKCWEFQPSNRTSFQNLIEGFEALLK
Assay: In vitro JAK kinase assay (HTRF, phosphorylation of a biotinylated peptide), JAK1
Type: biochemical
Conditions: method AA1 (90 μM ATP) or AA2 (1000 μM ATP), not stated per value; read-out: JAK1 IC50
Counter-ions that a name gives are not always drawn.
Quantity measured: IC50 (nM)

Some entries whose results are on file:
{"Molecule": "O=C(CC1CCN(c2ncco2)CC1)Nc1ccc2cc1CCc1cncc(c1)Nc1ncc(Cl)c(n1)N2 [Example A246, tris(trifluoroacetate)]", "Experimental target": "human JAK1 (a.a. 837-1142) (Homo sapiens)", "Units label": "nM", "IC50": 15}
{"Molecule": "O=C(COc1ccc2cc1CCc1cccc(c1)Nc1ncc(Cl)c(n1)N2)Nc1ccccc1 [Example A18, trifluoroacetate]", "Experimental target": "human JAK1 (a.a. 837-1142) (Homo sapiens)", "Units label": "nM", "IC50": 4.5}

I: O=C(CC1CCN(c2ncccn2)CC1)Nc1ccc2cc1CCc1cncc(c1)Nc1ncc(Cl)c(n1)N2 [Example A172, tris(trifluoroacetate)]
II: Cc1occc1C(=O)N1CCC(CC(=O)Nc2ccc3cc2CCc2cncc(c2)Nc2ncc(Cl)c(n2)N3)CC1 [Example A160, bis(trifluoroacetate)]
III: CCOC(=O)CNC(=O)N1CCC(C(=O)Nc2ccc3cc2CCc2cccc(c2)Nc2ncc(Cl)c(n2)N3)CC1 [Example A60, trifluoroacetate]
IV: CC(C)c1cc(C(=O)N2CCC(CC(=O)Nc3ccc4cc3CCc3cncc(c3)Nc3ncc(Cl)c(n3)N4)CC2)no1 [Example A214, bis(trifluoroacetate)]
Task: Arrange the 4 molecules by rising IC50, starting with the smallest. Arrange the labels as the request states and list them.
Output: II, I, III, IV

====

Biological target: human JAK2 (a.a. 828-1132) (Homo sapiens)
Construct: JAK2 (a.a. 828-1132); His tag (N); made in house; host or cells: insect cells (baculovirus)
Sequence (O60674 828-1132): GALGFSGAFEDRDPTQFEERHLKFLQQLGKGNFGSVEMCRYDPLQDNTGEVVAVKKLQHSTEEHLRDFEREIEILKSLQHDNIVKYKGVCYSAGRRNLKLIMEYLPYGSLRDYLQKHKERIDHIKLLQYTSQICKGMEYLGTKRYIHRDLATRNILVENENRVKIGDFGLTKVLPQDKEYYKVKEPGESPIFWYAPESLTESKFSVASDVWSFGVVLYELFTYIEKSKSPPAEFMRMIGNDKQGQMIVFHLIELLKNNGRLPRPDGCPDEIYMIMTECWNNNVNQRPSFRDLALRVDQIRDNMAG
Assay: In vitro JAK kinase assay (HTRF, phosphorylation of a biotinylated peptide), JAK2
Type: biochemical
Conditions: Table D1
Where a name gives a salt, the structure may show the parent alone.
Quantity measured: IC50 (nM)

Some entries whose results are on file:
{"Compound": "[O-][S+]1CCOc2cccc(c2)Nc2ncc(Cl)c(n2)Nc2cccc1c2 (stereo not drawn) [Example D13, trifluoroacetate]", "Units label": "nM", "IC50": 2.1}
{"Compound": "O=C(Nc1ccccc1F)N1CCC(CCOc2ccc3cc2CCc2cncc(c2)Nc2ncc(Cl)c(n2)N3)CC1 [Example D170, bis(trifluoroacetate)]", "Units label": "nM", "IC50": 130}
{"Compound": "N#Cc1ccc2cc1OCCSc1cccc(c1)Nc1nc(ncc1Cl)N2 [Example D81, trifluoroacetate]", "Units label": "nM", "IC50": 16}
{"Compound": "CC(C)(C)NC(=O)N1CCN(c2ccc3cc2CCc2cccc(c2)Nc2ncc(Cl)c(n2)N3)CC1 [Example D84, bis(trifluoroacetate)]", "Units label": "nM", "IC50": 7.3}
{"Compound": "O=C(C[C@H]1CCCN(C(=O)c2ccccc2)C1)Nc1ccc2cc1CCc1cncc(c1)Nc1ncc(Cl)c(n1)N2 [Example D207, bis(trifluoroacetate)]", "Units label": "nM", "IC50": 5.4}
{"Compound": "O=C(COc1ccc2cc1CCc1cncc(c1)Nc1ncc(Cl)c(n1)N2)N1CCN(c2nccs2)CC1 [Example D230, tris(trifluoroacetate)]", "Units label": "nM", "IC50": 47}

a: NS(=O)(=O)N1CCN(C(=O)COc2ccc3cc2CCc2cncc(c2)Nc2ncc(Cl)c(n2)N3)CC1 [Example D268, bis(trifluoroacetate)]
b: O=C(Nc1ccccc1)Nc1cc2cc(c1)OCCSc1cccc(c1)Nc1nc(ncc1Cl)N2 [Example D65, trifluoroacetate]
c: NC(=O)N1CCN(c2ccc(-c3cc4cc(c3)Nc3ncc(Cl)c(n3)Nc3cccc(c3)OCC4)cn2)CC1 [Example D40, bis(trifluoroacetate)]
Task: Arrange the 3 compounds by rising IC50, starting with the smallest. Arrange the labels as the request states and list them.
Output: c, b, a
(c: 0.7 nM, b: 5.1 nM, a: 36 nM)

a: O=C(Cn1c(=O)oc2c3cc(cc21)Nc1nc(ncc1Cl)Nc1cccc(c1)CC3)NCc1ccccc1 [Example D186, trifluoroacetate]
b: O=C(Nc1ccccc1)N1CCN(c2ccc(-c3cc4cc(c3)Nc3ncc(Cl)c(n3)Nc3cccc(c3)OCC4)cn2)CC1 [Example D42, bis(trifluoroacetate)]
c: O=C(Cc1ccccc1)Nc1cc2cc(c1)OCCSc1cccc(c1)Nc1nc(ncc1Cl)N2 [Example D64, trifluoroacetate]
d: O=C(C[C@@H]1CCCNC1)Nc1ccc2cc1CCc1cccc(c1)Nc1ncc(Cl)c(n1)N2
e: Cc1cc(C(=O)N2CCC(CCNc3ccc4cc3CCc3cncc(c3)Nc3ncc(Cl)c(n3)N4)CC2)no1 [Example D218, tris(trifluoroacetate)]
Task: Arrange the 5 compounds by rising IC50, starting with the smallest. Arrange the labels as the request states and list them.
Output: c, b, d, a, e

1: O=C(Nc1ccc(C(F)(F)F)cc1)N1CCN(c2ccc3cc2CCc2cccc(c2)Nc2ncc(Cl)c(n2)N3)CC1 [Example D90, bis(trifluoroacetate)]
2: N#CCC(=O)N1CCN(C(=O)COc2ccc3cc2CCc2cncc(c2)Nc2ncc(Cl)c(n2)N3)CC1 [Example D269, bis(trifluoroacetate)]
3: Clc1cnc2nc1Nc1cccc(c1)CSc1cccc(c1)N2 [Example D2, trifluoroacetate]
4: Clc1cnc2nc1Nc1cccc(c1)OCCc1cc(cc(-c3ccnc(N4CCNCC4)c3)c1)N2 [Example D27, tris(trifluoroacetate)]
Task: Output the entries ranked by IC50 from maximum down to minimum. Arrange the labels as the request states and list them.
Output: 2, 1, 3, 4
(2: 226 nM, 1: 23 nM, 3: 7.3 nM, 4: 0.3 nM)

====

Target: TYK2 (Homo sapiens)
Assay: TYK2 kinase inhibition (Table A1)
Format: biochemical
Conditions: Table B1
Where a name gives a salt, the structure may show the parent alone.
Quantity measured: IC50 (nM)

Some entries whose results are on file:
{"Compound": "CCCS(=O)(=O)Nc1ccc2cc1CCc1cccc(c1)Nc1ncc(Cl)c(n1)N2 [Example B142, trifluoroacetate]", "IC50 (nM)": 1.5}
{"Compound": "CC(C)S(=O)(=O)Nc1ccc2cc1CCc1cccc(c1)Nc1ncc(Cl)c(n1)N2 [Example B143, trifluoroacetate]", "IC50 (nM)": 13}
{"Compound": "CN(C(=O)Nc1ccc2cc1CCc1cncc(c1)Nc1ncc(Cl)c(n1)N2)[C@H]1CCN(C(=O)c2ccccc2)C1 [Example B291, bis(trifluoroacetate)]", "IC50 (nM)": 199}

I: O=C(NCCNC(=O)c1ccccc1)Nc1ccc2cc1CCc1cccc(c1)Nc1ncc(Cl)c(n1)N2 [Example B189, trifluoroacetate]
II: CCS(=O)(=O)Nc1ccc2cc1CCc1cccc(c1)Nc1ncc(Cl)c(n1)N2 [Example B141, trifluoroacetate]
Task: Which record would sort first by descending IC50, I or II ? Field: selected label. Fill in the label of the entry you choose.
Output: I
(I: 22 nM, II: 1.2 nM)

====

// pIC50 lookup, one value per entry
Molecular target: Recombinant Human Anaplastic Lymphoma Kinase (Homo sapiens, UniProt Q9UM73)
Construct: purchased Invitrogen, Carlsbad, Calif
Sequence (Q9UM73 19-1620): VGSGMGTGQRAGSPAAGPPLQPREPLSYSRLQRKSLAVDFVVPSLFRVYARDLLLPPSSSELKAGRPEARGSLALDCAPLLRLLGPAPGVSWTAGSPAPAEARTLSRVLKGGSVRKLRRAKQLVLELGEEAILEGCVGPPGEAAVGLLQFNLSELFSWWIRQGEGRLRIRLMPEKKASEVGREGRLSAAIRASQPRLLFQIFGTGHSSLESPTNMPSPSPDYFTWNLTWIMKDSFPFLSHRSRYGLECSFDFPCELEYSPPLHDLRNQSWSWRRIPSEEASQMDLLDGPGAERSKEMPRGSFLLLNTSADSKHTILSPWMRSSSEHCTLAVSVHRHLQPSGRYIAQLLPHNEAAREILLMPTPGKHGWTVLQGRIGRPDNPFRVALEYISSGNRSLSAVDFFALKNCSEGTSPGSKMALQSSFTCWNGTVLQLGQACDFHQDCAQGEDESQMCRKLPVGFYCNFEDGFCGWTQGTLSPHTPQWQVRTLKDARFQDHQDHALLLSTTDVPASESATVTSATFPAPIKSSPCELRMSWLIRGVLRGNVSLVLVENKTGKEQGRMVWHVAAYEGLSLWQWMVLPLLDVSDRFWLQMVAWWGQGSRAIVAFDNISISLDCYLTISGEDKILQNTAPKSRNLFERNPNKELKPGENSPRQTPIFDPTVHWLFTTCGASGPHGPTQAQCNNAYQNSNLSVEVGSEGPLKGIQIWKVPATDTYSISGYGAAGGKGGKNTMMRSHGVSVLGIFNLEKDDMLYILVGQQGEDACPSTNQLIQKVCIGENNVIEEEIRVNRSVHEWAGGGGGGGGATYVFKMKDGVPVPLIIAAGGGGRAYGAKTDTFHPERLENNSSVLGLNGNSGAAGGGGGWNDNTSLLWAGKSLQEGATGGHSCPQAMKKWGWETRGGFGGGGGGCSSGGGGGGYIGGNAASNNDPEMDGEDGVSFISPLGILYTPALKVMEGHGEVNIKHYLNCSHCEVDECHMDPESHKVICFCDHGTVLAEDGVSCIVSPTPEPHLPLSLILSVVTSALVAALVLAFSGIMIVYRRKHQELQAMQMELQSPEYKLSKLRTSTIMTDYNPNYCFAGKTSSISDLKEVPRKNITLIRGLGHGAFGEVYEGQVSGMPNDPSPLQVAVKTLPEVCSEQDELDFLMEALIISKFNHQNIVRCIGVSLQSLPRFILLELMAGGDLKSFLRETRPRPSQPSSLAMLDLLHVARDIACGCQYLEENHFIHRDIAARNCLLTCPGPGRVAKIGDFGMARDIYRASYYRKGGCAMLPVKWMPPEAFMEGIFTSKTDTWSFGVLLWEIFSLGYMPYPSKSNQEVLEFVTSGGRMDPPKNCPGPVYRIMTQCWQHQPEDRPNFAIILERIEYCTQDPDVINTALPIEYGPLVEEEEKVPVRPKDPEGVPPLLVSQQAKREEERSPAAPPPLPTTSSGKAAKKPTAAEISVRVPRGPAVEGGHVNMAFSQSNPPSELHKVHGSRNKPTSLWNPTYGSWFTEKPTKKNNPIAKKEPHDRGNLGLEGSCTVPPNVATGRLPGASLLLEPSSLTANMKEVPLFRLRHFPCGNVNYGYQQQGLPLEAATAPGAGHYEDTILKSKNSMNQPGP
Assay: ALK HTRF kinase assay
Format: biochemical
Conditions: Table B1; cells without percent sign
pIC50: −log10 of the molar value. Counter-ions that a name gives are not always drawn.

{"Compound": "Cc1cccc(NC(=O)Nc2ccc3cc2CCc2cccc(c2)Nc2ncc(Cl)c(n2)N3)c1 [Example B90, trifluoroacetate]", "Experimental target": "Recombinant Human Anaplastic Lymphoma Kinase (Homo sapiens, UniProt Q9UM73)", "pIC50": "< 6.00"}

Task: Look up and state reported pIC50 for O=C(Nc1ccc2cc1CCc1cccc(c1)Nc1ncc(Cl)c(n1)N2)c1ccno1 [Example B53, trifluoroacetate]
Output: 6.14

Task: Look up and state reported pIC50 for CCCC(=O)Nc1ccc2cc1CCc1cccc(c1)Nc1ncc(Cl)c(n1)N2 [Example B56, trifluoroacetate]
Output: 6.14

Task: Look up and state reported pIC50 for O=C(Nc1cc2cc(c1)Nc1nc(ncc1Cl)Nc1cccc(c1)CC2)c1nccs1 [Example B209, trifluoroacetate]
Output: < 6.00

Task: Look up and state reported pIC50 for O=C(Nc1ccc2cc1CCc1cccc(c1)Nc1ncc(Cl)c(n1)N2)c1ccccn1 [Example B37, bis(trifluoroacetate)]
Output: < 5.00

Task: Look up and state reported pIC50 for CC(C)(C)C(=O)Nc1ccc2cc1CCc1cccc(c1)Nc1ncc(Cl)c(n1)N2 [Example B58, trifluoroacetate]
Output: < 6.00

====

// pIC50 lookup, one value per entry
Target: TYK2 (Homo sapiens, UniProt P29597)
Sequence (P29597 whole entry): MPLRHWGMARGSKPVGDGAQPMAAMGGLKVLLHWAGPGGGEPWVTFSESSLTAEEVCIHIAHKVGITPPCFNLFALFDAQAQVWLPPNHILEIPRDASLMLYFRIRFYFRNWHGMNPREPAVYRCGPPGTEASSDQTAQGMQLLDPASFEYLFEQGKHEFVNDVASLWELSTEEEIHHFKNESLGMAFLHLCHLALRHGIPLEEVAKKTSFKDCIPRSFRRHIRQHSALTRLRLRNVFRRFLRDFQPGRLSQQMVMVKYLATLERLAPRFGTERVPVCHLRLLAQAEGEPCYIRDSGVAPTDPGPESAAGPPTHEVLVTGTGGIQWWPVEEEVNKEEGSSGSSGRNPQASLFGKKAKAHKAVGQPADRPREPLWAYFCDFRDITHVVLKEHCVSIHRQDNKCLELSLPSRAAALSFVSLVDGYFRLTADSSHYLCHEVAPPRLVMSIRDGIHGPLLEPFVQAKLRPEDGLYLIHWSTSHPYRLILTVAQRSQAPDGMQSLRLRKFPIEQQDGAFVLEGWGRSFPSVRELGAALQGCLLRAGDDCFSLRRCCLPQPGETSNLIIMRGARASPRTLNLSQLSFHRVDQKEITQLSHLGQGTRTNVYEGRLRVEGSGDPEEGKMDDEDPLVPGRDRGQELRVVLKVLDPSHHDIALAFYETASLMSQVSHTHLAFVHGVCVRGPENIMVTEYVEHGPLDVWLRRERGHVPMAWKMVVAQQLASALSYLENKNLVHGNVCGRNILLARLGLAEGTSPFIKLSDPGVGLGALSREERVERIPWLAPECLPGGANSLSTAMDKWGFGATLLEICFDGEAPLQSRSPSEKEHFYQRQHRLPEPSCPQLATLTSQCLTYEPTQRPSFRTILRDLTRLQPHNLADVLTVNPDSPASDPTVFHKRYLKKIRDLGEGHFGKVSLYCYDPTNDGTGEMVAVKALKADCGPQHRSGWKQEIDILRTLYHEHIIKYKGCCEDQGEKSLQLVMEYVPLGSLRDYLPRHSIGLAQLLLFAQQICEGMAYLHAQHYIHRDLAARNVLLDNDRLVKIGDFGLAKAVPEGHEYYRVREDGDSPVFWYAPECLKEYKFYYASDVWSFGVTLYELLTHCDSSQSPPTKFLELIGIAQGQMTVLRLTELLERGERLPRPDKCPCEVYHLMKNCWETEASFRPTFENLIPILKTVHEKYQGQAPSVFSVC
Assay: TYK2 kinase inhibition (Table A1)
Type: biochemical
pIC50: −log10 of the molar value.

Task: Enter recorded pIC50 with TYK2 (Homo sapiens, UniProt P29597) for O=C(CC1CCN(C(=O)c2ccc(F)cc2F)CC1)Nc1ccc2cc1CCc1cncc(c1)Nc1ncc(Cl)c(n1)N2 [Example A194, bis(trifluoroacetate)] here.
Output: < 6.70

Task: Enter recorded pIC50 with TYK2 (Homo sapiens, UniProt P29597) for `Clc1cnc2nc1Nc1cccc(c1)CCCc1cccc(c1)N2` here.
Output: < 7.00

Task: Enter recorded pIC50 with TYK2 (Homo sapiens, UniProt P29597) for CC(C)c1oncc1C(=O)N1CCC(CC(=O)Nc2ccc3cc2CCc2cncc(c2)Nc2ncc(Cl)c(n2)N3)CC1 [Example A218, bis(trifluoroacetate)] here.
Output: < 6.70

Task: Enter recorded pIC50 with TYK2 (Homo sapiens, UniProt P29597) for N#Cc1ccnc(N2CCC(CC(=O)Nc3ccc4cc3CCc3cncc(c3)Nc3ncc(Cl)c(n3)N4)CC2)c1 [Example A178, tris(trifluoroacetate)] here.
Output: < 6.70
